# abundance fitness annotations
B1: Ankyrin-3, residues 4094 to 4171; numbered along this chain, Q12955 (parent)
chain: MAIVADHLGLSWTELARELNFSVDEINQIRVENPNSLISQSFMLLKKWVTRDGKNATTDALTSVLTKINRIDIVTLLE

Variants of: B1
ASSAY_NAME: abundance fitness (aPCA) (normalised: wild type 0, dead -1); higher = more abundant; growth selection in yeast, the domain comes from the species named
CONDITION_DESCRIPTION: Homo sapiens
QUANTITY: abundance fitness

# SEQ_TEXT, QUANTITY, NUMERIC_RESULT
records = [
    ("MAIVADHLGLSWTELARELNFSVDEINQIRVENPNSLISQSFMLLKKWVTRIGKNATTDALTSVLTKINRIDIVTLLE [D52I]", "abundance fitness", -0.255),
    ("MAIVADHLGLSWTELARELNFSVDEINQIRVEFPNSLISQSFMLLKKWVTRDGKNATTDALTSVLTKINRIDIVTLLE [N33F]", "abundance fitness", -0.082),
    ("MAIVADHLGLSWTELARELNFSVDEINQIRVENPNSLISQSFMLLKKWVTRDGKNATTDALTSVLTKINRIDILTLLE [V74L]", "abundance fitness", -0.399),
    ("MAIVADHLGLSWTELARELNFSVDEINQIRVENPNSLISQSFMMLKKWVTRDGKNATTDALTSVLTKINRIDIVTLLE [L44M]", "abundance fitness", -0.074),
    ("MAIVADYLGLSWTELARELNFSVDEINQIRVENPNSLISQSFMLLKKWVTRDGKNATTDALTSVLTKINRIDIVTLLE [H7Y]", "abundance fitness", -0.444),
    ("MAIVADHLGLSWTELARELNFSVDEINQIRVENPNSLISQSFMLLKKWWTRDGKNATTDALTSVLTKINRIDIVTLLE [V49W]", "abundance fitness", -0.361),
    ("MAIVADHLGLSWTELARELNFSVDEINQIRVENPNSLISQSFMLLKKWLTRDGKNATTDALTSVLTKINRIDIVTLLE [V49L]", "abundance fitness", -0.058),
    ("MAIVADHLGLSWTELARELNFSVDEINQVRVENPNSLISQSFMLLKKWVTRDGKNATTDALTSVLTKINRIDIVTLLE [I29V]", "abundance fitness", -0.302),
    ("MAIVADHLGLSWTELARELNFSVDEINQIRVENPNSLISQSFMLLKKWVTRDGKNATTDALTSVLTKINREDIVTLLE [I71E]", "abundance fitness", -0.066),
    ("MAIVADHLGLSWTELARELNFSVDEINQIRVENPNSLISQSFMLLKKWRTRDGKNATTDALTSVLTKINRIDIVTLLE [V49R]", "abundance fitness", 0.024),
    ("MAIVADHLGLSWTELARELNFSVDEINVIRVENPNSLISQSFMLLKKWVTRDGKNATTDALTSVLTKINRIDIVTLLE [Q28V]", "abundance fitness", -0.399),
    ("MAIVADHLGLSWTELARELNFSVDEINQIRVENPNSLISQSFMLLKKWVTRDGKNATTDALTSVLTKINRIDGVTLLE [I73G]", "abundance fitness", -0.977),
    ("MAIVADHLGLSWTECARELNFSVDEINQIRVENPNSLISQSFMLLKKWVTRDGKNATTDALTSVLTKINRIDIVTLLE [L15C]", "abundance fitness", -0.433),
    ("MAIVADHLGLSWTELARTLNFSVDEINQIRVENPNSLISQSFMLLKKWVTRDGKNATTDALTSVLTKINRIDIVTLLE [E18T]", "abundance fitness", -0.427),
    ("MAIVADHLGLSWTELARELNFSVDEINQIRVENPNSLISQSFMLLKKWVTRDGKNATTDALTSVLTKINRIDIVTLPE [L77P]", "abundance fitness", -0.768),
    ("MAIVADHLGLSWTELARELNFSVDEINQIRVENPNSLISQSFMLLKKWVTRDGKNATTDALTSVLTKINRIDIVILLE [T75I]", "abundance fitness", -0.182),
    ("MAIVADHLGLSWTELARELNFSVDEINQIRVENPNSLISQSFMLLKKWVTRDGKNATTDALTSVLTKICRIDIVTLLE [N69C]", "abundance fitness", -0.549),
    ("MAIVADHLGLSWTELARELNFSVDEINQIRVENPNSLISQSFMLLKKWVTRDGKNATTDLLTSVLTKINRIDIVTLLE [A60L]", "abundance fitness", -0.074),
    ("MAIVADHLGLSWTELARELNFSVDIINQIRVENPNSLISQSFMLLKKWVTRDGKNATTDALTSVLTKINRIDIVTLLE [E25I]", "abundance fitness", -0.754),
    ("MAIVADHLGLSWTELARELNFSVDEINQIRVENPNSLISQSFMLLKKTVTRDGKNATTDALTSVLTKINRIDIVTLLE [W48T]", "abundance fitness", -0.876),
    ("MAIVADHLGLSWTELARELNFSVDEINQIRVENPNSLISQSFMLLKKWVTRDGKNATTKALTSVLTKINRIDIVTLLE [D59K]", "abundance fitness", 0.052),
    ("MAIVADHLGLSWTELARELNFSVDEINQIRVENPNSLISQSFMLLKKWVTRDGKNATTDALTSVLCKINRIDIVTLLE [T66C]", "abundance fitness", -0.21),
    ("MAIVADHLGLSWTELARELNFSVDEINQIRVENPNSLISWSFMLLKKWVTRDGKNATTDALTSVLTKINRIDIVTLLE [Q40W]", "abundance fitness", -0.736),
    ("MAIVADHLGLSWTELARELNFSVDEINQIRVENPNSLISQSFMLLKKWVTRWGKNATTDALTSVLTKINRIDIVTLLE [D52W]", "abundance fitness", -0.874),
    ("MAIVADHLGLSWTDLARELNFSVDEINQIRVENPNSLISQSFMLLKKWVTRDGKNATTDALTSVLTKINRIDIVTLLE [E14D]", "abundance fitness", -0.074),
    ("MAIVADHLGLSWTELARELNFSVDEINQIRVENPNSHISQSFMLLKKWVTRDGKNATTDALTSVLTKINRIDIVTLLE [L37H]", "abundance fitness", -0.107),
    ("MAIVADHLQLSWTELARELNFSVDEINQIRVENPNSLISQSFMLLKKWVTRDGKNATTDALTSVLTKINRIDIVTLLE [G9Q]", "abundance fitness", -0.39),
    ("MAIVADHLGLSWTELARELNFSVDEINQIRVENPNSLISQSFMLEKKWVTRDGKNATTDALTSVLTKINRIDIVTLLE [L45E]", "abundance fitness", -0.851),
    ("MAIVADHLGLSWTELARELNFSVDEINQIRVENPNSLISQSQMLLKKWVTRDGKNATTDALTSVLTKINRIDIVTLLE [F42Q]", "abundance fitness", 0.074),
    ("MAIVADHLGLSWTELARELNFSVDEINQIRVEGPNSLISQSFMLLKKWVTRDGKNATTDALTSVLTKINRIDIVTLLE [N33G]", "abundance fitness", -0.607),
    ("MAIVADHLGLSWTELARELNFSVDEINQIRVENPNSLISQSFMLLKKWVTRDMKNATTDALTSVLTKINRIDIVTLLE [G53M]", "abundance fitness", -0.772),
    ("MAIVADHLGLSWQELARELNFSVDEINQIRVENPNSLISQSFMLLKKWVTRDGKNATTDALTSVLTKINRIDIVTLLE [T13Q]", "abundance fitness", -0.201),
    ("MAIVADHLGLSWTELARELNFSVDEINQIRVENPNSLISQSFMLIKKWVTRDGKNATTDALTSVLTKINRIDIVTLLE [L45I]", "abundance fitness", -0.302),
    ("MAIVADHLGLSWTELARELNFSVDEINQIRVENPNSLISQSFMLLKKWVTRDGKNATTDALTSVLTKINRIDIVRLLE [T75R]", "abundance fitness", -0.002),
    ("MAIVADVLGLSWTELARELNFSVDEINQIRVENPNSLISQSFMLLKKWVTRDGKNATTDALTSVLTKINRIDIVTLLE [H7V]", "abundance fitness", -0.202),
    ("MAIVADHLGLSWTELARELNFSVDEINQIRVENPNSLISQSFMLLPKWVTRDGKNATTDALTSVLTKINRIDIVTLLE [K46P]", "abundance fitness", -0.915),
    ("MAIVADHLGLSWTELARELNFSVDEINQIRVENPNSLISQSFMLLKKWVTRDQKNATTDALTSVLTKINRIDIVTLLE [G53Q]", "abundance fitness", -0.065),
    ("MAIVADHLGLSWTELARELNFSVDEINQIRVENPNSLISQSFMLLKKWVTRDGKNATTDALTSVLTKINCIDIVTLLE [R70C]", "abundance fitness", -0.817),
    ("MAIVADHLGLSWTELARELNFSVDEINQIRVENPNSLISQSFMLLKGWVTRDGKNATTDALTSVLTKINRIDIVTLLE [K47G]", "abundance fitness", -0.31),
    ("MAIVADHLGLSWTELARELNHSVDEINQIRVENPNSLISQSFMLLKKWVTRDGKNATTDALTSVLTKINRIDIVTLLE [F21H]", "abundance fitness", -0.842),
]

Ref: the Human Domainome abundance scans (Beltran et al. 2025)
